# assayExplanation: Effect on solubility of 12 HSA (visual observation)
# Assay type: physicochemical
# protocolConditions: 41.18% Tween 60, 29.41% 12-HSA, 29.41% compound
propertyName: Observation

[
  {
    "compound": "CCCCCCC(O)C/C=C\\CCCCCCCC(=O)NC(CCC(=O)O)C(=O)O (centres unmarked)",
    "propertyName": "Observation",
    "result": "translucent"
  },
  {
    "compound": "CCCCCCC(O)C/C=C\\CCCCCCCC(=O)NC(C(=O)O)C(C)CC (centres unmarked)",
    "propertyName": "Observation",
    "result": "translucent"
  },
  {
    "compound": "CCCCCCC(O)C/C=C\\CCCCCCCC(=O)NCC(=O)O (centres unmarked)",
    "propertyName": "Observation",
    "result": "translucent"
  },
  {
    "compound": "CCCCCCC(O)C/C=C\\CCCCCCCC(=O)NC(C)C(=O)O (centres unmarked)",
    "propertyName": "Observation",
    "result": "translucent"
  }
]

Ref: patent US11202743B2
